Experiment: Reduction of food intake in fasted rats, intraperitoneal (IC50 from dose-response curve)
Type: in vivo, rat
Conditions: ip; rat, intraperitoneal, 1 hour food intake, Table 2; read-out: Activity LOG (IC50), reduction of food intake (converted)
Where a name gives a salt, the structure may show the parent alone.
Threshold check on ED50: strictly below 0.03 µmol/kg is 1.0; on or above 0.03 µmol/kg is 0.0.

Example results:
| compound | category |
| --- | --- |
| O=C(O)C1Cc2c([nH]c3ccccc23)CN1 (racemic) [Compound 14] | 0.0 |
| c1ccc(Cn2c3c(c4ccccc42)CCNC3)cc1 [Compound 19] | 0.0 |
| Cc1cccc2c3c([nH]c12)CNCC3 [Compound 10, hydrochloride] | 1.0 |
| CC(=O)N1CCc2c(n(Cc3ccccc3)c3ccccc23)C1 [Compound 27] | 0.0 |
| CC(=O)N1CCc2c([nH]c3ccccc23)C1 [Compound 16, 2-acetyl-1,2,3,4-tetrahydro-β-carboline] | 1.0 |
| CCCCCn1c2c(c3cc(C)ccc31)CCNC2 [Compound 21, hydrochloride] | 0.0 |

Confirm or reject: ED50 of CCCCCn1c2c(c3ccccc31)CCNC2 [Compound 23, hydrochloride] lies strictly below 0.03 µmol/kg 0.0

Now consider CCn1c2c(c3ccccc31)CCNC2 [Compound 20, hydrochloride] and answer again. 0.0
